Assay: Pharmacokinetic analysis following intravenous administration to beagle dogs
Type: in vivo
Settings: male, beagle, dog, in vivo, iv, 0.5 mg/kg
Procedure: Pharmacokinetic analysis was performed on various test compounds following intravenous or oral administration to beagle dogs. For pharmacokinetic analysis of intravenously administered compounds, the test compounds were formulated in 5% Ethanol, 55% PEG 300, and 40% water at 0.1 mg/mL for IV infusion. For pharmacokinetic analysis of orally administered compounds, the test compounds were formulated as an aqueous suspension in 0.1% Tween 20, 0.5% HPMC LV 100 in Di Water at 1 mg/kg. […]
Tick Criterion met if clearance is 1 mL/min/kg or greater. Tick Criterion not met if clearance is less than 1 mL/min/kg.

compound=O=C(NCc1c(F)cc(F)cc1F)c1cn2c(c(O)c1=O)C(=O)N1[C@H](C2)[C@H]2C[C@@H]1C(F)(F)C2 class_assignment="Criterion met"
compound=O=C(NCc1ccc(F)cc1F)c1cn2c(c(O)c1=O)C(=O)N1[C@@H]3CC[C@@H](C3)O[C@H]1C2 class_assignment="Criterion not met"
compound="O=C(NCc1ccc(F)cc1F)c1cn2c(c(O)c1=O)C(=O)N1C(C2)O[C@@H]2CCC[C@H]1C2 (stereo partly drawn)" class_assignment="Criterion met"
compound="O=C(NCc1ccc(F)cc1F)c1cn2c(c(O)c1=O)C(=O)N1C(C2)O[C@H]2CCC[C@@H]1C2 (stereo partly drawn)" class_assignment="Criterion met"
compound=O=C(NCc1c(F)cc(F)cc1F)c1cn2c(c(O)c1=O)C(=O)N1[C@H]3CC[C@H](C3)[C@@H]1C2 class_assignment="Criterion not met"
compound=O=C(NCc1c(F)cc(F)cc1F)c1cn2c(c(O)c1=O)C(=O)N1[C@H]3CC[C@H](C3)[C@H]1C2 class_assignment="Criterion not met"
